Give protease stability score for every item shown.
experimental-protocol: protease stability score; higher = more stable; yeast display proteolysis, trypsin and chymotrypsin;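 also: log10 excess protease needed over predicted unfolded state with 0 meaning unfolded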

Hey, can you go through the list below and give me protease stability score for every item?
1. DERLEDKMRKFLEVLRTGDEKKLRDLADPNVRFDIGEKKYRGRDEAVREYKRMRDEIRFEIKIRSLEAQGNKVDVTFEMTYDHNGKPKHNVVKLVFEQHNGKLKQLKVKSDK
2. DEEASKQLEEYLRALQTGDSHRVQQLLDPNAKARVGDHTYHGHKEILDWLNKLNEKMRFSIERLSVSVRGDQVEFSFKFDATFNGRPFHASQTMQINVHNGRLKKLTIQLDPEQLDTQRS
3. DSEVLDVLTSIVKNIHNGNPDEVMKQMDPNARVQVGDDRFHGDRKQQEDVQTLLDTMEVNIHITSVDFDGDKVTVRFKVEYNVNGRPFRIEAEMQAVAKNGRIQDLKVRIDKQFLSELKS
4. DEENLNRLDEFQQAVQTGDEKEAEELVDPNARVNVGDKQVNGMDKLRRTIHNKRRKMRVEIDHVNFRAKGNHVTARFDFHVNHNGTPRRTQMNVEARFKNGRIKSLRNESVS

Response line:
1: 0.596; 2: -0.088; 3: 0.858; 4: 0.121

Hey, can you go through the list below and give me protease stability score for every item?
1. DQEAAEILKRFVKAIKTGDPDEAKEQMDKDVKVRVGDKVIHGREEVAKEVEQTNRNLRLEVEINDYTVDGDKVTIRMRIVTNENGRPDVKTVKVTAHAHNGRLVHLEIQSDS
2. DEQTKAQQFAEDVVKANQQNDKDRLTEQFDKNARVQVGEKEVHGREHIMEELIKLMTEADKVDVKVRHVHAQGDKVHLDIHFRMRVNGQDHDSRMTIVARNSNGTVVIESVDVK
3. DDEQINEFVKVMKTNDFKRLMDQADPNVSVSIGNFTVKGDKQAQKAARDLEEQADHIQIDSLTAHDGRLDVTLQMVFNGRDIRMSIKAEAHNGRLKSMKFQATSEEIEKILDEVLR
4. DERKVDVARNVAKAILTNDPDRAMSMVDKDVTVVIGDKEINGHEDFREHIEKQSKEAKLDMRSVDADNRGDKAVLTLDYQIDYNGKPMRDTQTIEVHVTNGRVKELRVRVDESLKRDLKS
5. DERDQKHLAELIAKALETGDFKLAQKNVDENVRVKVGDETLHGKDNMQKWAEENHRRVDHLQLNDIKIHNGRVVINMRAVVNGKDFRLDIKIQFDNGKIHVVSIDPRVERHIKS
6. DHETHMEKFFEDQQKIRNKGDEDKVRNLFDPNARATYGDKTYQGREQIDKFENDVLRRVDHVNVQLRNVRVHNGRADFDARVVFKVNGRHERNHIRITVEINNGRIVIQSVHYG

Response line:
0.778
1.19
-0.142
-0.28
0.733
0.141

protease stability score for DEEAYRLFSEMEKARKDNDEEKLRELADEDVRFEVGDSVIKGMTRWATRVVQTAREQRFSYDIKRWHIEGDKVVVHREVRESHNGQPRSRTVVYRAHVDNGRVKSVTVEDTG is 0.158

====

Give protease stability score for every item shown.
experimental-protocol: protease stability score; higher = more stable; yeast display proteolysis, trypsin and chymotrypsin;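 also: log10 excess protease needed over predicted unfolded state with 0 meaning unfolded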
Numbers only.

{"columns": ["residue-codes", "protease stability score"],
 "data": [
  ["DEEKIAQKAVDRVEEAMNRGDPDTMKHLLDKDARITYGDQQYHGREEVIKFMDEFVENVDHVNVEFKEVEVHNGRARASARVVYTHNGQSHDVKLEVVFLIQGDEVRLTHLHYG", 2.11],
  ["DETAQKVANQFFEALKNGDPDQVRRLLDKNATVRIGEWQVHGREQASKDVHQNKQHAEYDWRIRSVKVTGNKVDIDAEVTYQHNGEPSRRQMVVNVVVTNGKIQDIHVRDEQ", 1.43],
  ["DEQRQAEEWVDKLESELHDGDFTKFANMADENARIVIGDKEIHGRENLQEHAKELKHRVDHVEMHVRHLYVTNGTLTVDVDMVLNHNGQRDKRRVVIVATSENGKFRAQHVTYS", 1.05],
  ["DEEEAKEFADVFKNGDQDRYADLFDPNARVNIGNKEYHGRERVRTAVRTFFQRIDHIQVNHVRIEGNQLRIDAKMEINGQRIQVVFKVRIHNGHIKQFVVDFRDEQTMREFHKQLE", 1.27],
  ["DDHEQRSLQELVKKNDEEKFAEQADKDVKVDVGDSRIHGREEWRKFVKRLKDRADHIEIHSVKADGEKLEVHREMTVDGRRVVYYVRYEVHNGRIKSISLQARTEDDQRKLQHVLS", 0.919]
]}

protease stability score for DEDKVRELVKKAFKAIVNGNEEEVRKLLDPNVKYKYVDKEFEGEEVAKFLVEMVRKLGAKVETEKTHIEGNTARATFVYKLGDQKVQTHAEVKYEGDKVKEVRVEMTDEDKKQLHRG is 1.17

====

Give protease stability score for every item shown.
experimental-protocol: protease stability score; higher = more stable; yeast display proteolysis, trypsin and chymotrypsin;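 also: log10 excess protease needed over predicted unfolded state with 0 meaning unfolded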
One number for each entry.

{"columns": ["residue-codes", "protease stability score"],
 "data": [
  ["DEEAIKVQEEIQKQEEKGNEENVEKNMDENVKLRVGDKDLEGRSEVSKDVRRRKDEMRFQYLHMSYHSNGETIRVNIEMSSNHNGRPDTRRFDATFHIHNGKLTEYSKESSQ", 0.161],
  ["DEQAVNEVEKMWRAIHDGDPERINKMFDPNAKFHIGNKELHGRENFATTMVKEQREIRRRVDIIRMSAHNGRITVRYRVDAEVNGEPYSNDITVSATVHNGKATDFTVHVDEDYLRKFNS", -0.004]
]}

protease stability score for DEKQNAEKVMTDVERNLREGDDNKIKEMADKDAKADVGEKKVTGREDIAKMLATLNKSVDEVTLDLKHVTTQGDFLNVKADIKWRHNGTTRQNKVEMWVNDFNGNVVIKHLRIG is 1.08

====

Give protease stability score for every item shown.
experimental-protocol: protease stability score; higher = more stable; yeast display proteolysis, trypsin and chymotrypsin;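 also: log10 excess protease needed over predicted unfolded state with 0 meaning unfolded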

Study these solved cases before continuing.
{"columns": ["residue-codes", "protease stability score"],
 "data": [
  ["EEEVEKAAERVAEVMKDNNPERVEELFDPNAHITVGDRTLHGREELSKHYKTMTDQWRIQIDRFSVEDHGSTVVIRIDFEADHDGRPEKREVIIKLSVSNGRVSWAIFKVDQ", 0.734],
  ["EEKLRERIKKFIDIMQTGNPEELEKQADEDAHFEIGEKRVHGMDDYAKEVQRELEDAQVRINVDSVRASNGRVEAHATMSETRNGQPRTAELKLEAQFHNGRIKHVRLHKHQ", -0.059],
  ["DEEHMEHFREVMEQNDPDELNELVDPNARLVIGDKKYHGRDTVVKLIKRFWSKADHNRLRSLTIRNGRASWRMQATVNGQRLDFTVEAVFHNGRLKTMRFKFRDRSQVDHFRRLLQ", 1.74],
  ["DRRETAKEVMKKISDILKENDENRLEDLMDPNAKVNVGDKRVHGRREAANQMVEEHTRYDHMDMDIRRIDVDGDKIIVIFTVTLTNNGKTDTKNVVIYFTVHNGRVQITRIRHK", -0.157]
]}

Hey, can you go through the list below and give me protease stability score for every item?
1. DDTQAREQAHRFMEAMRTGDPDTLRKLMDKDVRVTVGDHTYHGRESVAHAVITMVESIDHISVKDIKVENGTARVDFVVTVNGRRQSYDAVLEVDNGRIRYVQMHEK
2. DESLVEILKKLAKAFNENDPDHLVKLFDEDARLDYGDTSVHGREQIKRLMEDWKRRMTVKIRVNHIDVKNGRAQMKADLTIRHNGKPDTNKVEVELHAHNGRNKEVVFERTK
3. DEHKEREIAERYAQNLTHGNPTEIARQFDPNVKMTVGDKELQGREQVEEALHNFRERVDHHSYDTFTVSNGRVNISAQANVDGKNVKVDVRVVVNNGRVKDVKINPEQWKHVQG

Response line:
1: 0.857; 2: 0.279; 3: -0.234

====

experimental-protocol: protease stability score; higher = more stable; yeast display proteolysis, trypsin and chymotrypsin;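 also: log10 excess protease needed over predicted unfolded state with 0 meaning unfolded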
Give protease stability score for every item shown.
One number for each entry.

Study these solved cases before continuing.
{"columns": ["residue-codes", "protease stability score"],
 "data": [
  ["EEELRNVYRDLLEAEERGNPDDIKRLVDPNARLQIGDKEIHGREHLMRFVEEVRKEIRFEIDRLDVTATGETAKVDARVKQNHNGQPESWHYTVQVKYHNGRIVNLRMRRTS", 1.31],
  ["DEEEHAKQFLDKMHRAFENNNKDEVRKLADENARFEYGDKTYHGDEEFAKWMREIRERVDRVEMDLRSIEREGEKLNIRFEVKYKHNGNSDTQRWVFVIKHHNGDYVIEKLREQ", 1.22]
]}

Now let's try a different one.
protease stability score for DEEDMNTLQKMNEKNDEEKLQKLADEDARFVVGDKTLTGHHEFQTFVHRFVKHVDHLQVDSVEVQGNQVDLDVRAEINGRHYRFQIVIIIQNGRLKEYRLQATDEDEEEKFKKMIE is 1.25
